Data credit: patent US9732087B2

- measurement_target: human H4 receptor (Homo sapiens (Human))
- measurement_description: Binding assay on recombinant human histamine H4 receptor ([3H]histamine competition, SK-N-MC cell membranes)
- measurement_conditions: membranes harvested with cell harvester; [3H]histamine 10 nM; average of results; read-out: Cell Harvester Ki
measured_attribute: Ki (nM)

Please review the following examples before continuing.
CC(C)CNc1cc(N2CC[C@@H](N)C2)cnn1    106
c1ccc(CCNc2nccc(N3CCNCC3)n2)cc1    1540
C[C@@H](Nc1nccc(N2CC[C@@H](N)C2)n1)c1ccccc1    816
COc1ccc(CNc2nccc(N3CCNCC3)n2)cc1    2530
N[C@@H]1CCN(c2ccnc(NC3CCCC3)n2)C1    3.8

1. CC(C)CNc1nccc(N2CC(N)C2)n1
2. CN1CCN(c2ccnc(NCc3ccccc3)n2)CC1
Data request: // compare measured Ki, left 1 , right 2 , return larger Your answer should be the label attached to the chosen record.
Data returned: 2

1. c1cc(N2CCCNCC2)cc(NC2CC3CCC2C3)n1 (stereo not shown)
2. CN[C@@H]1CCN(c2cnnc(NCCOC)c2)C1
3. NC1CN(c2cnnc(NC3CCCC3)c2)C1
Data request: Please put the entries in order of rising Ki. Answer by listing the labels in the requested order.
Data returned: 1, 2, 3
(1: 1.71 nM, 2: 1810 nM, 3: 2740 nM)

1. N[C@H]1CCN(c2ccnc(NCCc3ccccc3)c2)C1
2. Fc1ccc(CNc2cc(N3CCNCC3)ccn2)cc1
Data request: Between 1 and 2 , whose measured Ki reads higher? Write down the label attached to your selection.
Data returned: 1
